Test system: P. fluorescens ATCC13525
Test: MIC, P. fluorescens ATCC13525
Type: cell-based
Settings: Pseudomonas fluorescens, read-out: MIC
parameter: MIC
Remember to quote the unit after the number.

Some entries whose results are on file:
compound	MIC
Cn1nnnc1SCC1=C(C(=O)O)N2C(=O)C(NC(=O)C(=NOCC(=O)NN=Cc3ccc(O)c(O)c3)c3csc(N)n3)C2SC1 (stereo not shown)	12.5 µg/mL
Cn1nnnc1SCC1=C(C(=O)O)N2C(=O)C(NC(=O)C(=NOCC(=O)NNC(=O)c3ccc(O)c(O)c3)c3csc(N)n3)C2SC1 (stereo not shown)	12.5 µg/mL
Cc1nnc(SCC2=C(C(=O)O)N3C(=O)C(NC(=O)C(=NOCC(=O)NNC(=O)c4ccc(O)c(O)c4)c4csc(N)n4)C3SC2)s1 (stereo not shown)	12.5 µg/mL

Consider now this further compound.
Which MIC value belongs to CO/N=C(\C(=O)N[C@@H]1C(=O)N2C(C(=O)O)=C(COC(C)=O)CS[C@H]12)c1csc(N)n1 ?
25 µg/mL
